System: BNL SV A.8 (mouse hepatic; SV40-mediated transformed cells)
Experiment: Cell proliferation (MTT) assay, BNL SV A.8
Assay type: cell-based
Conditions: Mus musculus; 48 h, MTT; read-out: IC50 cell growth inhibition, BNL SV A.8
MEASURED ENDPOINT: pIC50
Scale note: pIC50 = -log10(concentration in M).

Field: example entries. Status: answers known.
| CPD SMILES | pIC50 |
| --- | --- |
| O=C(c1ccccc1-c1ccccc1)N1CCc2c([nH]c3ccccc23)C1 | 6.12 |
| CC(C)(C)c1ccc(C(=O)N2CCc3c([nH]c4ccccc34)C2)cc1 | 4.46 |
| COc1ccccc1C(=O)N1CCc2c([nH]c3ccccc23)C1 | 4.40 |

Proceeding to the next compound to report its pIC50.
Record COc1cccc(C(=O)N2CCc3c([nH]c4ccccc34)C2)c1 : what is its pIC50 with BNL SV A.8 (mouse hepatic; SV40-mediated transformed cells)?
5.09

====

Target: Cdk1-cyclin B1 (Homo sapiens)
Sequence (P06493 whole entry): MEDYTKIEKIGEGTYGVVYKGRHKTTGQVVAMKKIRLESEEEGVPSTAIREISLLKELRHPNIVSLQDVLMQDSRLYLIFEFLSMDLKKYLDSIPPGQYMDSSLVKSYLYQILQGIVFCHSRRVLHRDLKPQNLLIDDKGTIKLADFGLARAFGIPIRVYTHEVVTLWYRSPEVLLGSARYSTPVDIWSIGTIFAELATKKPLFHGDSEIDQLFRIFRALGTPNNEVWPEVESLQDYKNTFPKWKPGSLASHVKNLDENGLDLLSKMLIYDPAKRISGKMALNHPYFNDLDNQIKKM
Sequence (P14635 whole entry partner): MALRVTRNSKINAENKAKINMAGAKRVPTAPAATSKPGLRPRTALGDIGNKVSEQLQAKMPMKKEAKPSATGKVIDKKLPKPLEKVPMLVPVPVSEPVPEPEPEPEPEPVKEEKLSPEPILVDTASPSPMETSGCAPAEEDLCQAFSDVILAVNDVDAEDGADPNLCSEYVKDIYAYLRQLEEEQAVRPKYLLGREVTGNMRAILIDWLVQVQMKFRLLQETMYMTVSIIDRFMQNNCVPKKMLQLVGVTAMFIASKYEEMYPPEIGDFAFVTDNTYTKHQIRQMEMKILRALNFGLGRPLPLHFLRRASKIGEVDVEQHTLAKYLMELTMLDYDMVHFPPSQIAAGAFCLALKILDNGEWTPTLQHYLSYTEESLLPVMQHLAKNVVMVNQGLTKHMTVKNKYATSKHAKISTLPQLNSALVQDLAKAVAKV
pIC50: −log10 of the molar value.
Recorded pIC50 by entry

Quick one: pIC50 of O=C(c1ccccc1-c1ccccc1)N1CCc2c([nH]c3ccccc23)C1 ?
< 3.30

Quick one: pIC50 of O=C1c2ccccc2-[n+]2ccc3c([nH]c4ccccc43)c21 [Fascaplysin, fascaplysin, reference compound] ?
< 3.60

Quick one: pIC50 of COc1ccccc1C(=O)N1CCc2c([nH]c3ccccc23)C1 ?
< 3.30

====

Target: MAPK1 (Homo sapiens)
Sequence (P27361 2-379 limits assumed): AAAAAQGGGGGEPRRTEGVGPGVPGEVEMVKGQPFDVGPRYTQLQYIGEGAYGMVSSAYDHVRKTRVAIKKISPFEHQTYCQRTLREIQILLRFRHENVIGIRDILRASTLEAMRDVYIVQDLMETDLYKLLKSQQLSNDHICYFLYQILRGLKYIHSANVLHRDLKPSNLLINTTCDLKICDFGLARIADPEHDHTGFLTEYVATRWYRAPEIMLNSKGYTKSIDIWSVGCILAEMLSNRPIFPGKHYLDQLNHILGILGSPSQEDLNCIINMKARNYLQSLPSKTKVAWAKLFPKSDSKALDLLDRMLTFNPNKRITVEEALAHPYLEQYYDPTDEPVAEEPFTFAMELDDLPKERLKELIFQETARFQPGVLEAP
pIC50: −log10 of the molar value.
MEASURED ENDPOINT: pIC50

Quick one: pIC50 of O=C(c1ccccc1-c1ccccc1)N1CCc2c([nH]c3ccccc23)C1 ?
< 5.00

====

Recorded IC50 by entry
System: NCI-H1299 (NSCLC; p53 null, pRb+)
Assay: Cell proliferation (MTT) assay, NCI-H1299
Assay type: cell-based
Details: Homo sapiens, 48 h, read-out: IC50 cell growth inhibition, NCI-H1299
Method: All 10 human cancer cell lines were maintained at 37 °C in 5% CO2 in RPMI-1640 medium, supplemented with 10% foetal calf serum and 100 μg/ml normocin. […]
Please reply with the bare figure in µM and do not write the unit itself.

Field: example entries. Status: answers known.
| CPD SMILES | MEASURED ENDPOINT | NUMERIC READOUT |
| --- | --- | --- |
| COc1cccc(C(=O)N2CCc3c([nH]c4ccccc34)C2)c1 | IC50 | 4.5 |
| O=C(c1ccccc1-c1ccccc1)N1CCc2c([nH]c3ccccc23)C1 | IC50 | 0.9 |
| COc1ccccc1C(=O)N1CCc2c([nH]c3ccccc23)C1 | IC50 | 35 |

Quick one: IC50 of CC(C)(C)c1ccc(C(=O)N2CCc3c([nH]c4ccccc34)C2)cc1 ?
30

====

Below are IC50 values recorded for Cdk9-cyclin T1 (Homo sapiens).

| MOLECULE | RESULT |
| --- | --- |
| O=C(c1ccccc1-c1ccccc1)N1CCc2c([nH]c3ccccc23)C1 [BPT] | > 1000 µM |

Proceeding to the next molecule to report its IC50.
Quick one: IC50 of O=C1c2ccccc2-[n+]2ccc3c([nH]c4ccccc43)c21 [Fascaplysin, fascaplysin, reference compound] ?
> 250 µM

====

Target: Cdk4-cyclin D1 (Homo sapiens, UniProt P11802)
Sequence (P11802 whole entry): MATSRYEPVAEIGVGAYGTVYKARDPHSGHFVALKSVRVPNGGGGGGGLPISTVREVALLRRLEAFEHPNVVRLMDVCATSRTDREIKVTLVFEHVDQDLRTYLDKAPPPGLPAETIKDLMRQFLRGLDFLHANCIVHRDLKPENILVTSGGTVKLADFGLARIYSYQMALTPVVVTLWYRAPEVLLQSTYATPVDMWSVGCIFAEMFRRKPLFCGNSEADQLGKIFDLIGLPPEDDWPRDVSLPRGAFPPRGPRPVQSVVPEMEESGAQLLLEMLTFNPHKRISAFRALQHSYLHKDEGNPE
Sequence (P24385 whole entry partner): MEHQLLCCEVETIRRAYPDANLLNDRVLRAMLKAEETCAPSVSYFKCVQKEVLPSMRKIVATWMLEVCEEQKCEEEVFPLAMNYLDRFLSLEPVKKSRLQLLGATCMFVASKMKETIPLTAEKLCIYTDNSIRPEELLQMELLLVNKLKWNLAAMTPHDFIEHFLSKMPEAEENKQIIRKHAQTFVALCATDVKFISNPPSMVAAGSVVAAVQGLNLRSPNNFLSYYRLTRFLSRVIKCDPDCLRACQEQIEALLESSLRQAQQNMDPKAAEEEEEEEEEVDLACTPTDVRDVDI
Test: In vitro kinase assay, Cdk4-cyclin D1 (in-house)
Assay type: biochemical
Settings: three independent experiments; read-out: IC50 (mean±S.D.), Cdk4-cyclin D1
MEASURED ENDPOINT: IC50 (µM)
Please reply with the bare figure in µM and do not write the unit itself.

Field: example entries. Status: answers known.
| CPD SMILES | IC50 [µM] |
| --- | --- |
| COc1cccc(C(=O)N2CCc3c([nH]c4ccccc34)C2)c1 | 24.4 |
| CC(C)(C)c1ccc(C(=O)N2CCc3c([nH]c4ccccc34)C2)cc1 | 44 |
| O=C(c1ccccc1-c1ccccc1)N1CCc2c([nH]c3ccccc23)C1 | 10 |

Record COc1ccccc1C(=O)N1CCc2c([nH]c3ccccc23)C1 : what is its IC50 with Cdk4-cyclin D1 (Homo sapiens, UniProt P11802)?
25

====

Target: MEK1 (Homo sapiens)
Sequence (Q02750 whole entry): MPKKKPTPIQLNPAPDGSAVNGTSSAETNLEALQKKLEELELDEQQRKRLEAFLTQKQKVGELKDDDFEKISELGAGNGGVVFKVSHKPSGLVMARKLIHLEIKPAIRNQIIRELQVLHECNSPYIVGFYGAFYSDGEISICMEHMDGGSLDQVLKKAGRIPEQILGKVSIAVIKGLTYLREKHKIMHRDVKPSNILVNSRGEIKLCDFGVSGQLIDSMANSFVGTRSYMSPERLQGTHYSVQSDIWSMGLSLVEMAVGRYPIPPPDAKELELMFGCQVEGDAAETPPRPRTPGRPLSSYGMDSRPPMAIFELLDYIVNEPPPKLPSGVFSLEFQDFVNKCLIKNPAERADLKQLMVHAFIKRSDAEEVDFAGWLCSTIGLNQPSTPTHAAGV
MEASURED ENDPOINT: IC50

Quick one: IC50 of O=C(c1ccccc1-c1ccccc1)N1CCc2c([nH]c3ccccc23)C1 ?
> 10 µM

====

Molecular target: Cdk2-cyclin A (Homo sapiens)
Assay: In vitro kinase assay, Cdk2-cyclin A (in-house)
Assay type: biochemical
MEASURED ENDPOINT: IC50

Record O=C1c2ccccc2-[n+]2ccc3c([nH]c4ccccc43)c21 [Fascaplysin, fascaplysin, reference compound] : what is its IC50 with Cdk2-cyclin A (Homo sapiens)?
> 250 µM

====

Target: Cdk2-cyclin A (Homo sapiens)
Experiment: In vitro kinase assay, Cdk2-cyclin A (in-house)
Assay type: biochemical
Conditions: three independent experiments; read-out: IC50 (mean±S.D.), Cdk2-cyclin A
MEASURED ENDPOINT: pIC50
Scale note: pIC50 = -log10(concentration in M).

Field: example entries. Status: answers known.
| CPD SMILES | NUMERIC READOUT |
| --- | --- |
| CC(C)(C)c1ccc(C(=O)N2CCc3c([nH]c4ccccc34)C2)cc1 | 3.14 |
| COc1ccccc1C(=O)N1CCc2c([nH]c3ccccc23)C1 | 3.06 |

Quick one: pIC50 of COc1cccc(C(=O)N2CCc3c([nH]c4ccccc34)C2)c1 ?
3.12

Quick one: pIC50 of O=C(c1ccccc1-c1ccccc1)N1CCc2c([nH]c3ccccc23)C1 ?
3.08

====

Biological target: EGFR (Homo sapiens, UniProt P00533)
Sequence (P00533 25-1210): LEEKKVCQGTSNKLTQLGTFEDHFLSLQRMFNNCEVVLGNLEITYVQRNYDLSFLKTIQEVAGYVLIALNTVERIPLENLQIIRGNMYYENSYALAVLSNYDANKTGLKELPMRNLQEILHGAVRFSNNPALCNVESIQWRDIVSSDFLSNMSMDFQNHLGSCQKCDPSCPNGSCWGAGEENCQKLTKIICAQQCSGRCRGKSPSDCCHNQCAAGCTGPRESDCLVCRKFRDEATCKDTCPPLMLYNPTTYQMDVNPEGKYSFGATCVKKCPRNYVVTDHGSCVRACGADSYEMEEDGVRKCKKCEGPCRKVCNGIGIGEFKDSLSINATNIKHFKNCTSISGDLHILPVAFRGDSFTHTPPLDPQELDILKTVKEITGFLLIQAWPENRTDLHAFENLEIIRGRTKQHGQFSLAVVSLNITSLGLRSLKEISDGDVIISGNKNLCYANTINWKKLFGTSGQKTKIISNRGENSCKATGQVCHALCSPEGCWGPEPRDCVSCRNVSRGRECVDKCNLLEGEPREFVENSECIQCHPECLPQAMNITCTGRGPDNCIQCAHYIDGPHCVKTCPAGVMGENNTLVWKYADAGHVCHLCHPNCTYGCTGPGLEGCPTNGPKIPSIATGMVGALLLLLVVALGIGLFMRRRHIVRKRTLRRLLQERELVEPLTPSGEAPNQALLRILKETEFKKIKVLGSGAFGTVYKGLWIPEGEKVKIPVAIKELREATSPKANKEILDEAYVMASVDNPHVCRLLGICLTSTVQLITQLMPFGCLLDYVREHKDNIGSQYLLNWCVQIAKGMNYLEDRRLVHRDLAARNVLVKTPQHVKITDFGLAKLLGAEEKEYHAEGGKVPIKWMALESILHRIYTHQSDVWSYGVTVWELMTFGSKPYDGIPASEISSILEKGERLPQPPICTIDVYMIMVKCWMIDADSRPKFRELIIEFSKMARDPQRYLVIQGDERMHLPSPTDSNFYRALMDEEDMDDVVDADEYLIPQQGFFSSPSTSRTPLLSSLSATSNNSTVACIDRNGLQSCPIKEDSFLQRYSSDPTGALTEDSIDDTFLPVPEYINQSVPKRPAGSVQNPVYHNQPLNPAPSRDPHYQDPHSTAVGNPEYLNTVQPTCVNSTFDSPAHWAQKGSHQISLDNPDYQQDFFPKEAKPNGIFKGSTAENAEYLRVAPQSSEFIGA
MEASURED ENDPOINT: IC50

Quick one: IC50 of O=C(c1ccccc1-c1ccccc1)N1CCc2c([nH]c3ccccc23)C1 [BPT] ?
> 10 µM

====

Target: PKCα (Homo sapiens, UniProt P17252)
MEASURED ENDPOINT: IC50

Record O=C(c1ccccc1-c1ccccc1)N1CCc2c([nH]c3ccccc23)C1 [BPT] : what is its IC50 with PKCα (Homo sapiens, UniProt P17252)?
> 10 µM

====

Test system: Calu-1 (NSCLC; p53 null, pRb+)
Assay: Cell proliferation (MTT) assay, Calu-1
Format: cell-based, human
Settings: Homo sapiens, Calu-1; 48 h, MTT; read-out: IC50 cell growth inhibition, Calu-1
Kindly apply the following: fulfilled if IC50 is less than 50 µM, not fulfilled in every other case.

| MOLECULE | ANSWER LABEL |
| --- | --- |
| O=C1c2ccccc2-[n+]2ccc3c([nH]c4ccccc43)c21 [Fascaplysin, fascaplysin, reference compound] | fulfilled |

In plain terms, does COc1ccccc1C(=O)N1CCc2c([nH]c3ccccc23)C1 [CA198] come in under 50 µM for IC50?
not fulfilled

In plain terms, does COc1cccc(C(=O)N2CCc3c([nH]c4ccccc34)C2)c1 [CA199] come in under 50 µM for IC50?
fulfilled

In plain terms, does O=C(c1ccccc1-c1ccccc1)N1CCc2c([nH]c3ccccc23)C1 [BPT] come in under 50 µM for IC50?
fulfilled

In plain terms, does CC(C)(C)c1ccc(C(=O)N2CCc3c([nH]c4ccccc34)C2)cc1 [CA211] come in under 50 µM for IC50?
not fulfilled

====

Tested on: MiaPaCa (pancreatic; p53His273mut, pRb+)
Assay: Cell proliferation (MTT) assay, MiaPaCa
Format: cell-based
Details: Homo sapiens, MIA PaCa-2, 48 h, read-out: IC50 cell growth inhibition, MiaPaCa
MEASURED ENDPOINT: IC50 (µM)
Please reply with the bare figure in µM and do not write the unit itself.

Field: example entries. Status: answers known.
| COMPOUND | MEASURED ENDPOINT | MEASUREMENT UNITS | NUMERIC READOUT |
| --- | --- | --- | --- |
| COc1cccc(C(=O)N2CCc3c([nH]c4ccccc34)C2)c1 | IC50 | µM | 8.5 |
| CC(C)(C)c1ccc(C(=O)N2CCc3c([nH]c4ccccc34)C2)cc1 | IC50 | µM | 29 |
| O=C1c2ccccc2-[n+]2ccc3c([nH]c4ccccc43)c21 [Fascaplysin, fascaplysin, reference compound] | IC50 | µM | 0.88 |
| COc1ccccc1C(=O)N1CCc2c([nH]c3ccccc23)C1 | IC50 | µM | 43 |

Quick one: IC50 of O=C(c1ccccc1-c1ccccc1)N1CCc2c([nH]c3ccccc23)C1 ?
0.8

====

Assay: Pharmacokinetics in BALB/c mice
Type: in vivo
Details: male, mouse, plasma, 1.0 mg/kg intravenous
MEASURED ENDPOINT: AUC(0-t) (ng·h/mL)
Please reply with the bare figure in ng·h/mL and do not write the unit itself.

Quick one: AUC(0-t) of O=C(c1ccccc1-c1ccccc1)N1CCc2c([nH]c3ccccc23)C1 ?
170

Source: paper PMC4669722
